These measurements were taken from paper PMC4072668.

- Target Or System: membrane-bound phosphatase activities of rat washed cortical membrane
- Assay Info: LC-MS/MS phosphatase assay, Zn2+ profile, C-terminal phosphopeptide pI2α1C-P as substrate
- Type: biochemical
- Stated Conditions: substrate pI2α1C-P 10 µM, 1 mM Mg2+, 30°C, 10 min; two-step fit; read-out: IC50 (L), low affinity
Measured Metric: pIC50
The meaning of pIC50 here: minus log10 of the concentration in molar units.

Challenge: Entry [Cl-].[Cl-].[Zn+2] [Zn^2+, Zinc chloride] : reported pIC50 = ?
Response given: 4.82

* * *

- Target Or System: membrane-bound phosphatase activities of rat washed cortical membrane
- Assay Info: LC-MS/MS phosphatase assay, Zn2+ profile, N-terminal phosphopeptide pI2α1N-P as substrate
- Type: biochemical
- Stated Conditions: substrate pI2α1N-P 10 µM, 1 mM Mg2+, 30°C, 10 min; two-step fit; read-out: IC50 (H), high affinity
Measured Metric: pIC50
The meaning of pIC50 here: minus log10 of the concentration in molar units.

Challenge: Entry [Cl-].[Cl-].[Zn+2] [Zn^2+, Zinc chloride] : reported pIC50 = ?
Response given: 5.77

* * *

- Target Or System: membrane-bound phosphatase activities of rat washed cortical membrane
- Assay Info: LC-MS/MS phosphatase assay, Zn2+ profile, C-terminal phosphopeptide pI2α1C-P as substrate
- Assay type: biochemical
- Stated Conditions: substrate pI2α1C-P 10 µM, 1 mM Mg2+, 30°C, 10 min; two-step fit; read-out: IC50 (H), high affinity
Measured Metric: IC50 (nM)
Form entry: value (nM) — number only.

Challenge: Entry [Cl-].[Cl-].[Zn+2] [Zn^2+, Zinc chloride] : reported IC50 = ?
Response given: 600

* * *

- Target Or System: membrane-bound phosphatase activities of rat washed cortical membrane
- Assay Info: LC-MS/MS phosphatase assay, Zn2+ profile, N-terminal phosphopeptide pI2α1N-P as substrate
- Format: biochemical
- Stated Conditions: substrate pI2α1N-P 10 µM, 1 mM Mg2+, 30°C, 10 min; two-step fit; read-out: IC50 (L), low affinity
Measured Metric: pIC50
The meaning of pIC50 here: minus log10 of the concentration in molar units.

Challenge: Entry [Cl-].[Cl-].[Zn+2] [Zn^2+, Zinc chloride] : reported pIC50 = ?
Response given: 4.32

* * *

- Target Or System: membrane-bound phosphatase activities of washed cortical membrane
- Assay Info: LC-MS/MS phosphatase assay with effectors, N-terminal phosphopeptide pI2α1N-P as substrate
- Format: biochemical
- Stated Conditions: substrate pI2α1N-P, 1 mM Mg2+, 30°C, 10 min; listed as Sodium fluoride; read-out: IC50
pIC50: −log10 of the molar value.
Measured Metric: pIC50

Challenge: Entry [F-].[Na+] [fluoride (F^−), sodium fluoride] : reported pIC50 = ?
Response given: > 2.70

* * *

- Target Or System: membrane-bound phosphatase activities of washed cortical membrane
- Assay Info: LC-MS/MS phosphatase assay with effectors, N-terminal phosphopeptide pI2α1N-P as substrate
- Assay type: biochemical
- Stated Conditions: substrate pI2α1N-P, 1 mM Mg2+, 30°C, 10 min; read-out: IC50
Measured Metric: IC50 (µM)
Form entry: value (µM) — number only.

                                   compound  recorded_result
0  Brc1ccc(C2CN3CCSC3=N2)cc1.O=C(O)C(=O)O (single isomer, unassigned; (-)) [(−)-p--Br--t, (−)-p-bromotetramisole oxalate]              300

Attention now turns to another entry.
Challenge: Entry Brc1ccc(C2CN3CCSC3=N2)cc1.O=C(O)C(=O)O (single isomer, unassigned; (+)) [(+)-p--Br--t, (+)-p-bromotetramisole oxalate] : reported IC50 = ?
Response given: 100
